- subject.of.test: T1, full length human GPC3 His (human, UniProt P51654 25-559, limits assumed)
- T1 construct: also called full length human GPC3 protein; not shown: His tag
- procedure.summary: SPR (Biacore T200), full length human GPC3 His immobilised, IgG1 in solution
This section presents binders with their documented Kd values.
attribute.measured: Kd (nM)

binder: anti-human GPC3 IgG1 antibody clone 40 (antibody, V domains shown, also called parental clone 40; chimeric anti-GPC3 clone 40) VH: CQSVEESGGRLVTPGTPLTLTCTVSGFSLSTYWMTWVRQAPGKGLEWIGIISPAGSAYYASWAKGRFTISKTSSATVDLKMTSLTTADTATYFCAGGGGMDPWGPGTLVTVSS VL: DPVLTQTPSSVSAAVGGTVSISCQSSQSIVKNYLSWFQQKPGQPPKRLIYKASTLPSGVPSRFKGSGSGTEFTLTISDLECDDAATYYCAASYSDNIYVFGGGTEVVVKR
scale.unit: nM
reading: 0.6

binder: anti-human GPC3 IgG1 antibody clone 12 (antibody, V domains shown) VH: CQSVEESGGRLVTPGTPLTLTCTVSGFSLSTYWMTWVRQAPGKGLEWIGIINPSGSAFYASWAKGRFTISKTSSATVDLKMTSLTAADTATYFCAGGGGMDPWGPGTLVTVSS VL: DPVLTQTPSSVSAAVGGTVSISCQSSQSIVKNYLSWFQQKPGQPPKRLIYKASTLPSGVPSRFKGSGSGTEFTLTISDLECDDAATYYCAASYSDNIYVFGGGTEVVVKR
scale.unit: nM
reading: 0.6

binder: anti-human GPC3 IgG1 antibody clone 22 (antibody, V domains shown) VH: CQSVEESGGRLVTPGTPLTLTCTVSGFSLSTYWMTWVRQAPGKGLEWIGIINPTGRAYYASWAKGRFTISKTSSATVDLKMTSLTAADTATYFCAGGGGMDPWGPGTLVTVSS VL: DPVLTQTPSSVSAAVGGTVTINCQSSQSVYSNYLSWFQKKPGQPPKRLIYKASTLVSGVPSRFVGSGSGTEFTLTISDLECDDAATYYCAASYSGNIYVFGGGTEVVVKR
scale.unit: nM
reading: 1.6

binder: anti-human GPC3 IgG1 antibody clone 17 (antibody, V domains shown) VH: CQSVEESGGRLVTPGTPLTLTCTVSGFSLSTYDMSWVRQAPGKGLEYIGWINSGGSPYYARWAKGRFTISKTSSTTVDLKMTSPTTEDTATYFCARHRSGYYGDIWGPGTLVTVSL VL: DPVLTQTPSSVSAAVGDTVSINCQSSQNVYKNRLAWYQQKPGQPPKLLIYGASTLASGVPSRFKGSGSGTQFTLTISDLECDDAATYYCAGGYSTIVDNTFGGGTEVVVKR
scale.unit: nM
reading: 0.2

Values compiled from patent US12492252.
